Test: Liver microsomal stability assay, rat
Type: in vitro ADME
Conditions: rat, liver microsomes, Metabolic stability, % remaining of RK-701, Rat; Time 60; replicate values
parameter_measured: remaining at 60 min, 1 µM (%)
State just the number; it will be interpreted in %.

Request: Give me measured remaining at 60 min, 1 µM, please, for this compound: Cc1c(C(=O)NC(CCC2CC2)C(=O)Nc2ccc(C#N)cc2)[nH]c2c1C(=O)CC(C)(C)C2 (stereo not shown) [RK-701]
Response: 35.6

* * *

Assay: Liver microsomal stability assay, monkey
Format: in vitro ADME
Settings: monkey, liver microsomes, Metabolic stability, % remaining of RK-701, Monkey; Time 10; replicate values
parameter_measured: remaining at 10 min, 1 µM (%)
State just the number; it will be interpreted in %.

Request: Give me measured remaining at 10 min, 1 µM, please, for this molecule: Cc1c(C(=O)NC(CCC2CC2)C(=O)Nc2ccc(C#N)cc2)[nH]c2c1C(=O)CC(C)(C)C2 (stereo not shown) [RK-701]
Response: 85.8
